Test system: RWP1 cells
Experiment: Effect of anti-FZD5 Fabs on proliferation of pancreatic cancer cell lines (percent growth inhibition)
Assay type: cell-based, human
Settings: Fab 10 μg/ml
readoutKind: percent growth inhibition, RWP1 10 μg/ml (%)
State just the number; it will be interpreted in %.

Reference set, count: 2
molecule	readoutUnit	percent growth inhibition, RWP1 10 μg/ml
Fab-2905: anti-FZD5 Fab with antibody variable region Fv-2905; CDR SEQ ID NOs: 35, 36, 44, 83, 120, 157 (antibody, V domains shown) VH: EVQLVESGGGLVQPGGSLRLSCAASGFNLSYYYMHWVRQAPGKGLEWVASIYSSYSYTSYADSVKGRFTISADTSKNTAYLQMNSLRAEDTAVYYCARSGYALDYWGQGTLVTVSS VL: DIQMTQSPSSLSASVGDRVTITCRASQSVSSAVAWYQQKPGKAPKLLIYSASSLYSGVPSRFSGSRSGTDFTLTISSLQPEDFATYYCQQSSWYYGYPFTFGQGTKVEIK	%	41.10
Fab-2918: anti-FZD5 Fab with antibody variable region Fv-2918; CDR SEQ ID NOs: 35, 36, 57, 96, 133, 169 (antibody, V domains shown) VH: EVQLVESGGGLVQPGGSLRLSCAASGFNLSYSSIHWVRQAPGKGLEWVASIYSSYSSTSYADSVKGRFTISADTSKNTAYLQMNSLRAEDTAVYYCARFGYWAIDYWGQGTLVTVSS VL: DIQMTQSPSSLSASVGDRVTITCRASQSVSSAVAWYQQKPGKAPKLLIYSASSLYSGVPSRFSGSRSGTDFTLTISSLQPEDFATYYCQQAFGASLFTFGQGTKVEIK	%	39.24

Query (molecule): Fab-2923: anti-FZD5 Fab with antibody variable region Fv-2923; CDR SEQ ID NOs: 35, 36, 62, 100, 138, 162 (antibody, V domains shown) VH: EVQLVESGGGLVQPGGSLRLSCAASGFNLYYYYMHWVRQAPGKGLEWVASIYSSSGSTSYADSVKGRFTISADTSKNTAYLQMNSLRAEDTAVYYCARGAMDYWGQGTLVTVSS VL: DIQMTQSPSSLSASVGDRVTITCRASQSVSSAVAWYQQKPGKAPKLLIYSASSLYSGVPSRFSGSRSGTDFTLTISSLQPEDFATYYCQQWYGYSALITFGQGTKVEIK ; field requested: percent growth inhibition, RWP1 10 μg/ml
40.29

Values compiled from patent US20210253718A1.
